# assay_target: T1, human neonatal Fc receptor (hFcRn) (human, UniProt P55899 24-290; P61769 21-119)
# T1 construct: Biotinylated in the ELISA, Octet and yeast assays; also called human FcRn; huFcRn
# T1 sequence (P55899 24-290 limits assumed, chain 1 of 2): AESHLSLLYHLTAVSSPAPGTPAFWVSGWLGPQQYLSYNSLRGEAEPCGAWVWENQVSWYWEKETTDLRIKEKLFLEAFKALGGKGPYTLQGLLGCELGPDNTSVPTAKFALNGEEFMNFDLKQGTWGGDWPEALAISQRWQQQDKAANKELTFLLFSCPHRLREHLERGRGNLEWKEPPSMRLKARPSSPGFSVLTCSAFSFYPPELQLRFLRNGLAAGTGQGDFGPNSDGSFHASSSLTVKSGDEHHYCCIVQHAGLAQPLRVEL
# T1 sequence (P61769 21-119 limits assumed, chain 2 of 2): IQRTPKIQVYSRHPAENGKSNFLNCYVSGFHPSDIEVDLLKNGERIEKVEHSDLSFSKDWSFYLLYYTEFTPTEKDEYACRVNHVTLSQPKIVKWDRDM
# protocol_description: phage ELISA pH 6;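 note: higher score means stronger binding and above about 3 to 5 exceeds background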
Parameter ELISA score: see the listing below.
property: ELISA score

>  <binder>
L5 isolate with insertion SEQ ID NO: 441 (other) EPKSCDKTHTCPPCPAPELLGGPSVFLFPPKPKDTLMISRTPEVTCVVVDVSHEDPEVKFNWYVDGVEVHNAKTKPREEQYNSTYRVVSVLTVLHQDWLNGKEYKCKVSNKALPAPIEKTISKAKGQPREPQVYTLPPSRDELTKNQVSLTCLVKGFYPSDIAVEWESNGGCEATMTWCGGGQPENNYKTTPPVLDSDGSFFLYSKLTVDKSRWQQGNVFSCSVMHEALHNHYTQKSLSLSPGK

>  <val>
54.7

$$$$
>  <binder>
L5 isolate with insertion SEQ ID NO: 495 (other) EPKSCDKTHTCPPCPAPELLGGPSVFLFPPKPKDTLMISRTPEVTCVVVDVSHEDPEVKFNWYVDGVEVHNAKTKPREEQYNSTYRVVSVLTVLHQDWLNGKEYKCKVSNKALPAPIEKTISKAKGQPREPQVYTLPPSRDELTKNQVSLTCLVKGFYPSDIAVEWESNGGCLMSQDLCGGGQPENNYKTTPPVLDSDGSFFLYSKLTVDKSRWQQGNVFSCSVMHEALHNHYTQKSLSLSPGK

>  <val>
21.5

$$$$
>  <binder>
variant Fc-fragment Fc-5-113 (other, soluble elsewhere) EPKSCDKTHTCPPCPAPELLGGPSVFLFPPKPKDTLMISRTPEVTCVVVDVSHEDPEVKFNWYVDGVEVHNAKTKPREEQYNSTYRVVSVLTVLHQDWLNGKEYKCKVSNKALPAPIEKTISKAKGQPREPQVYTLPPSRDELTKNQVSLTCLVKGFYPSDIAVEWESNGGCQGMWTWCGGGQPENNYKTTPPVLDSDGSFFLYSKLTVDKSRWQQGNVFSCSVMHEALHNHYTQKSLSLSPGK

>  <val>
56.1

$$$$
